# assay-name: chemical genetic growth profiling, strain panel (AID 1159580);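 further: tested at 20 µM; growth read once vehicle control cultures reached saturation at 30 °C; 1 = growth at the plate median or of vehicle wells; lower values mean less growth of the strain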
# stated-conditions: S. cerevisiae deletion strains, growth OD, locus YPR167C, strain met16, hits give low values
Screen size: about 5,500 compounds; about 2,000 (36%) were called active. Another 18% or so got no clear call; they are omitted. This is one part of the list.
Kindly state normalized growth for each of the entries shown.
Provide a numeric answer; units are not to be included.

# normalized growth of CC(C)C(C)/C=C/C(C)C1CCC2C3=CC=C4CC(O)CCC4(C)C3CCC21C (configuration not stated) = 0.956

# normalized growth of CCCCOC(=O)c1ccc(N)cc1 = 0.96

# normalized growth of Oc1ccc(Cl)cc1 = 0.974

# normalized growth of CCCCOC(=O)c1ccccc1C(=O)OCc1ccccc1 = 0.98

# normalized growth of OCc1ccccc1O = 0.989

# normalized growth of CCCCCCOc1ccccc1C(N)=O = 0.627

# normalized growth of CC(C)(C)CC(C)(C)c1ccc(O)c(Cc2ccc(Cl)cc2Cl)c1 = 1.02

###

# assay-name: chemical genetic growth profiling, strain panel (AID 1159580);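 further: tested at 20 µM; growth read once vehicle control cultures reached saturation at 30 °C; 1 = growth at the plate median or of vehicle wells; lower values mean less growth of the strain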
# stated-conditions: S. cerevisiae deletion strains, growth OD, locus YLR384C, strain iki3, hits give low values
Screen size: about 5,500 compounds; about 2,000 (36%) were called active. About 18% were inconclusive and are not listed. This is one part of the list.
Kindly state normalized growth for each of the entries shown.

# normalized growth of CC(C)C(C)/C=C/C(C)C1CCC2C3=CC=C4CC(O)CCC4(C)C3CCC21C (stereo unspecified) = 0.988 (inactive)

# normalized growth of C=CC(N)CCC(=O)O (stereo unspecified) = 0.965 (inactive)

# normalized growth of CO/N=C(\C(=O)NC1C(=O)N2C(C(=O)OC(C)OC(C)=O)=C(COC(N)=O)CSC12)c1ccco1 (stereo unspecified) = 1 (inactive)

# normalized growth of COc1cc2occ(-c3ccccc3)c(=O)c2c(OC)c1C = 0.976 (inactive)

# normalized growth of COc1cc(OC)c2c(=O)c(-c3ccccc3)coc2c1 = 1 (inactive)

# normalized growth of CC1C[C@H]2CC(=O)[C@H]3CCCN4CCC[C@H]2[C@]34C1 (stereo partly specified) = 1.02 (inactive)

# normalized growth of Cc1ccc(Cl)c(Nc2ccccc2C(=O)O)c1Cl = 0.893 (active)

# normalized growth of Cc1cccc(Nc2ccccc2C(=O)O)c1C = 0.894 (active)

# normalized growth of COc1ccc(-c2coc3cc(OC)cc(OC)c3c2=O)cc1 = 0.987 (inactive)

# normalized growth of CC(=O)OC1CCC2(C)C(=CC=C3C2CCC2(C)C3CCC2C(C)/C=C/C(C)C(C)C)C1(C)C (stereo unspecified) = 1.03 (inactive)

# normalized growth of Cn1c(=O)c2[nH]cnc2n(C)c1=O = 1.01 (inactive)

###

Kindly state normalized growth for each of the entries shown.
# assay-name: chemical genetic growth profiling, strain panel (AID 1159580);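 further: tested at 20 µM; growth read once vehicle control cultures reached saturation at 30 °C; 1 = growth at the plate median or of vehicle wells; lower values mean less growth of the strain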
# stated-conditions: S. cerevisiae deletion strains, growth OD, locus YDL101C, strain DUN1, hits give low values
The campaign covered roughly 5,500 compounds. About 2,000 (36%) were called active. Another 18% or so got no clear call; they are omitted. This is one part of the list.
Provide a numeric answer; units are not to be included.

# normalized growth of CC[C@H](C)C(=O)O[C@H]1C[C@@H](C)C=C2C=C[C@H](C)[C@H](CC[C@@H]3C[C@@H](O)CC(=O)O3)[C@H]21 = 0.977

# normalized growth of Cn1c(=O)c2[nH]cnc2n(C)c1=O = 0.985

# normalized growth of Cc1nc(-c2ccc(S(=O)(=O)Nc3ccc(Br)cc3Cl)s2)cs1 = 0.956

# normalized growth of CC1OC1P(=O)(O)O (stereo not given) = 0.992

# normalized growth of O=C1[C@H](CCC(O)c2ccc(F)cc2)[C@@H](c2ccc(O)cc2)N1c1ccc(F)cc1 (stereo not given in full) = 0.985
